# System: C. albicans IFM 40009
# Test details: Antifungal Activity Against Candida albicans (In vivo), survival of infected mice
# Set-up: species or system Candida albicans in male ICR (CRJ: CD-1) mice
# Measurement conditions: i.v. C. albicans infection, oral 1.25 mg/kg, four times in total, 14 days observation, Kaplan-Meier (Cox mantel test), ***: p < 0.001, control 4.1
Assay metric: Survival days (days)
Your answer is read as days, so omit the unit and give the number.

A selection of reference data follows.
Compound	Target or test system	Assay metric	Reported measurement
COC(Cn1cncn1)(c1ccc(F)cc1F)C(F)(F)S(=O)(=O)CCOC(C)=O (centres unmarked)	C. albicans IFM 40009	Survival days	14.0
OC(Cn1cncn1)(Cn1cncn1)c1ccc(F)cc1F [Fluconazole, reference compound]	C. albicans IFM 40009	Survival days	9.6
COCCS(=O)(=O)C(F)(F)C(Cn1cncn1)(OC)c1ccc(F)cc1F (centres unmarked)	C. albicans IFM 40009	Survival days	14.0

Survival days reading for CCOC(Cn1cncn1)(c1ccc(F)cc1F)C(F)(F)S(=O)(=O)CCO (centres unmarked) : 13.4

Survival days reading for COC(Cn1cncn1)(c1ccc(F)cc1F)C(F)(F)S(=O)(=O)CCO (centres unmarked) : 14.0
